Data provenance is ChEMBL document CHEMBL1146930.

Some compounds, each annotated with its measured IC50.
# Test System: Protein farnesyltransferase (Homo sapiens, UniProt P49354+P49356)
# Test Protocol: Inhibition of farnesyl transferase
# number only, unit nM dropped from output

Recorded IC50, per entry:
                                   compound  measurement_units  endpoint_result
0  CC1(c2cccc3ccccc23)C(=O)N(CCCn2ccnc2)C(=O)N1Cc1ccc(CNS(C)(=O)=O)cc1 (stereo not given)                 nM              350
1  CC1(c2cccc3ccccc23)C(=O)N(CCCn2ccnc2)C(=O)N1Cc1ccc(C(=O)O)cc1 (stereo not given)                 nM              200
2  CCOC(=O)CN1C(=O)N(CCCc2cncn2C)C(=O)C1(C)c1cccc2ccccc12 (stereo not given)                 nM             2800
3  CC1(c2cccc3ccccc23)C(=O)N(CCCn2ccnc2)C(=O)N1Cc1cccc(Br)c1 (stereo not given)                 nM              370

Record CSCC[C@H](NC(=O)CN1C(=O)N(CCCc2c[nH]cn2)C(=O)C1(C)c1cccc2ccccc12)C(=O)O (stereo not given in full) . Reported IC50: 800

Lookup result for CC1(c2cccc3ccccc23)C(=O)N(CCCn2ccnc2)C(=O)N1Cc1cccc(C#N)c1 (stereo not given) ; measured IC50: 90

Notebook: CC1(c2cccc3ccccc23)C(=O)N(CCCn2ccnc2)C(=O)N1Cc1ccc(C#N)cc1 (stereo not given) , IC50 read as 900

---

# Test System: Protein farnesyltransferase (Homo sapiens, UniProt P49354+P49356)
# Test Protocol: Inhibition of farnesyl transferase
Readout Label: pIC50
The read-out pIC50 is expressed as -log10 of concentration in moles per litre.

>>> print(df.to_string())
                                   molecule  endpoint_result
0  COC(=O)[C@H](CCSC)NC(=O)CN1C(=O)N(CCc2cnc[nH]2)C(=O)C1(C)c1cccc2ccccc12 (stereo partly drawn)             2.60
1  COC(=O)[C@H](CCSC)NC(=O)CN1C(=O)N(CCCc2cnc[nH]2)C(=O)C1(C)c1cccc2ccccc12 (stereo partly drawn)             3.30
2  CC1(c2cccc3ccccc23)C(=O)N(CCCn2ccnc2)C(=O)N1Cc1cccc(Cl)c1 (stereo not drawn)             6.62
3  CC1(c2cccc3ccccc23)NC(=O)N(CCCc2cnc[nH]2)C1=O (stereo not drawn)             4.40
4  CC1(c2cccc3ccccc23)C(=O)N(CCCn2ccnc2)C(=O)N1Cc1ccc(Oc2ccccc2)cc1 (stereo not drawn)             6.12

// pIC50 lookup, molecule = CC1(c2cccc3ccccc23)C(=O)N(CCCn2ccnc2)C(=O)N1Cc1cccc(CNS(C)(=O)=O)c1 (stereo not drawn) , result: 5.92

Data point: CC1(c2cccc3ccccc23)C(=O)N(CCCn2ccnc2)C(=O)N1Cc1ccc(Br)cc1 (stereo not drawn) ; pIC50 = 6.80

---

A collection of compounds and their measured IC50
# Test System: Protein farnesyltransferase (Homo sapiens, UniProt P49354+P49356)
# Test Protocol: Inhibition of farnesyl transferase
Remember to follow the number with its unit.

Consider the following illustrative entries.
>>> print(df.to_string())
                                   compound                               test_system  endpoint_result
0  CC1(c2cccc3ccccc23)C(=O)N(CCCn2ccnc2)C(=O)N1Cc1ccccc1C#N (stereo not drawn)  Protein farnesyltransferase (Homo sapiens, UniProt P49354+P49356)          1300 nM
1  CSCC[C@H](NC(=O)CN1C(=O)N(CCc2cnc[nH]2)C(=O)C1(C)c1cccc2ccccc12)C(=O)O (stereo partly drawn)  Protein farnesyltransferase (Homo sapiens, UniProt P49354+P49356)          4800 nM

Moving on to the next compound.
Entry CC1(c2cccc3ccccc23)C(=O)N(CCCn2ccnc2)C(=O)N1Cc1ccc(S(C)(=O)=O)cc1 (stereo not drawn) — recorded IC50 = 1100 nM
